Entry source: PubChem BioAssay (NCI)

Tested on: HCC-2998 colon
Experimental details: NCI-60 one-dose screen, 48 h (100 = growth as untreated, 0 = no growth, -100 = all killed)
Experimental setup: 10 µM unless noted
This is part of a sample that, as a whole, favours compounds with a hit. Of some 83,000 tested, about 20% had one in any assay.
Property measured: growth (%)
Report the figure in % without appending any unit label.

Answered cases to consult:
Compound	growth [%]
CC(=O)OC1CCC2C3CCC4=C/C(=N/OC(=O)c5ccc(N(CCCl)CCCl)cc5)CCC4(C)C3CC(C)C12 (stereo not drawn)	98.6
C/C(=C\c1ccn(-c2ccc(N)cc2C(F)(F)F)n1)[C@@H]1C[C@@H]2O[C@]2(C)CCC[C@H](C)[C@H](O)[C@@H](C)C(=O)C(C)(C)[C@@H](O)CC(=O)O1	14.1
Cn1cc(-c2csc(-c3cn(CCN4CCOCC4)c4ccccc34)n2)c2cccnc21	99.2
CCCC(C)C1(CC)C(=O)NC(=O)N(C)C1=O (stereo not drawn)	97.9
O=[N+]([O-])/C=C\c1ccc(Cl)c(Cl)c1	64.1
[Cl][Hg][c]1cc(Br)cc(Br)c1	85.4
COC(=O)[C@@H](C)C[C@H](Cc1ccccc1)NC(=O)c1nc([C@@H](C[C@H](C(C)C)N(C)C(=O)[C@@H](NC(=O)[C@H]2C[C@H](O)CCN2C)C(C)C)OC(C)=O)sc1C(C)C	14.1

input: What value of measured growth is listed for "CC1=C(CCCOC(=O)CN)C2=C(C)C3(CC3)[C@@](C)(O)C(=O)C2=C1" ?
output: 85.1

* * *

System: T-47D breast
Experimental details: NCI-60 one-dose screen, 48 h
Experimental setup: 10 µM unless noted
This is part of a sample that, as a whole, favours compounds with a hit. Of some 83,000 tested, about 20% had one in any assay. Calls of active or inactive are those of the source. The calls were made as follows: active = growth percent below 10; inactive = the rest.
A correct response names exactly one class from active, inactive

Illustrative cases are given below, each with its answer.
>>> print(df.to_string())
                                   molecule     tested_on  label_value
0                      CCNc1nc(Cl)nc(NCC)n1  T-47D breast     inactive
1               CCC1(C(C)C)C(=O)NC(=S)NC1=O  T-47D breast     inactive
2  O=C(CC1(O)C(=O)N(Cc2ccccc2)c2ccc(Br)cc21)c1ccc(C(=O)NCC2CCC3(CC2)OOC2(CCCCC2)OO3)cc1 (stereo not given)  T-47D breast       active
3                      Cc1cc(C)c(CBr)c(C)c1  T-47D breast     inactive

input: Could you please tell me the result logged for "COC(=O)[C@@H](C)C[C@H](Cc1ccccc1)NC(=O)c1nc([C@@H](C[C@H](C(C)C)N(C)C(=O)[C@@H](NC(=O)[C@H]2CCCCN2C)C(C)C)OC(C)=O)sc1C" in this assay?
output: inactive

input: Could you please tell me the result logged for O=C1C=C(N2C3C4CCC(C4)C32)C(=O)C=C1c1ccccc1 (stereo not given) in this assay?
output: active

input: Could you please tell me the result logged for CCCCCCCCCCCCNC(c1ccccc1)C(O)c1ccccc1 (stereo not given) in this assay?
output: inactive

input: Could you please tell me the result logged for O=C(O)C1C(C(=O)O)C2(Cl)C(Cl)=C(Cl)C1(Cl)C2(Cl)Cl.[Hg] (stereo not given) in this assay?
output: inactive

input: Could you please tell me the result logged for "CC[C@H](C)[C@H](NC(=O)[C@H]1CCCCN1C)C(=O)N(C)[C@H](CCc1nc(C(=O)N[C@@H](Cc2ccccc2)C[C@H](C)C(=O)OC)cs1)C(C)C" in this assay?
output: inactive

input: Could you please tell me the result logged for "CCCCCC1(CCBr)C(=O)NC(=O)NC1=O" in this assay?
output: inactive
